Molecular target: T1, recombinant murine midkine (muMK) (murine, UniProt P12025 23-140)
T1 construct: also called murine MK; Murine MK
T1 sequence (looked up): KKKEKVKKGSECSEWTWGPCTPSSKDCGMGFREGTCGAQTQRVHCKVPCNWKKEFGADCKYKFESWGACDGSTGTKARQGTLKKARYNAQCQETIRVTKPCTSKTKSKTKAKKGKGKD
Assay: ELISA, plate coated with muMK
Flag rule - EC50 less than 80 pM flags condition met; the remaining entries get condition not met.

binder | className
mouse-human chimeric IP14 antibody (antibody, V domains shown, also called chimeric antibody; Hv0 Lv0) VH: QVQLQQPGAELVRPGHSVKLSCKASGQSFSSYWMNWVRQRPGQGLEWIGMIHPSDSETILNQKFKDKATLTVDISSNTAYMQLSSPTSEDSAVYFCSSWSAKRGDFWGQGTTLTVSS VL: DIVLTQSPATLSVTPGDSVNLSCRASESISNNLHWYQQKSHESPRLLIKYASQSISGIPSRFSGSGSGTDFNLSVNSVETEDFGMYFCQQSNSWPLTFGAGTKLELKR | condition not met
IP14-H1L8 (antibody, V domains shown, also called hIP14-H1L8; Hv1 Lv8) VH: QVQLVQSGAEVKKPGHSVKVSCKASGQSFSSYWMNWVRQAPGQGLEWIGMIHPSDSETILNQKFKDKATLTVDISTSTAYMELSSPRSEDTAVYYCSSWSAKRGDFWGQGTLVTVSS VL: DIVLTQSPATLSLSPGERATLSCRASESISNNLHWYQQKPHQAPRLLIYYASQSISGVPARFSGSGSGTDFTLTISSVEPEDFAVYYCQQSNSWPLTFGQGTKVEIKR | condition not met
IP14-H6L3 (antibody, V domains shown, also called hIP14-H6L3; Hv6 Lv3) VH: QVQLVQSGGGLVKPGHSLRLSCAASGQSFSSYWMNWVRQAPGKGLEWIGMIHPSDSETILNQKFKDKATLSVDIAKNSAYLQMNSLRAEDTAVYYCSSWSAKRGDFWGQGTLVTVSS VL: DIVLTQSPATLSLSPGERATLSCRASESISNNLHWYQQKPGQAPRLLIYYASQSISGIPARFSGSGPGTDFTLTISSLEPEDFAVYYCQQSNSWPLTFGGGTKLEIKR | condition met

Please determine if IP14-H6L2 (antibody, V domains shown, also called hIP14-H6L2; Hv6 Lv2) VH: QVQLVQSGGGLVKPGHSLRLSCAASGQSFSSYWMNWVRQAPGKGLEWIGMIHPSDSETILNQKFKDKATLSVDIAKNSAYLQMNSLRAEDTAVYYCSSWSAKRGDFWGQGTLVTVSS VL: EIVLTQSPATLSLSPGERATLSCRASESISNNLHWYQQKPGQAPRLLIKYASQSISGIPARFSGSGPGTDFTLTISSVEPEDFAVYYCQQSNSWPLTFGGGTKLEIKR is below 80 pM in terms of EC50.
condition met

Origin of values: patent US20170240628A1
